molecular target: GFP-myo1e-tail (His6-GFP-myo1e-tail) (Homo sapiens, UniProt Q12965)
Sequence (Q12965 710-1108): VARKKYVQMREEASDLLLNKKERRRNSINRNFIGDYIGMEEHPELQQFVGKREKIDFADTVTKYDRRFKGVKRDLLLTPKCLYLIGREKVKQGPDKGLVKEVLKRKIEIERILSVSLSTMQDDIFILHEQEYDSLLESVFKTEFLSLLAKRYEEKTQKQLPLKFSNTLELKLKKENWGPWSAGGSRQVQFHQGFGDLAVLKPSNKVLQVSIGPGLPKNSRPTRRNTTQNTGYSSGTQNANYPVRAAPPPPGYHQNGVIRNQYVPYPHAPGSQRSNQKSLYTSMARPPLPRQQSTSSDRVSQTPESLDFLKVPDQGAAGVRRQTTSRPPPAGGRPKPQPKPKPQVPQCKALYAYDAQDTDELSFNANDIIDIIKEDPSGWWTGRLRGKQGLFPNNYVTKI
measured.parameter: pKd
Quick note: pKd means taking -log10 of the concentration in moles per liter.

Examples with their reported pKd follow.
CCCCCCCC/C=C\CCCCCCCC(=O)OC[C@H](COP(=O)(O)O[C@H]1[C@H](O)[C@@H](OP(=O)(O)O)[C@H](OP(=O)(O)O)[C@@H](OP(=O)(O)O)[C@H]1O)OC(=O)CCCCCCC/C=C\CCCCCCCC
5.49
CCCCCCCC/C=C\CCCCCCCC(=O)OC[C@H](COP(=O)(O)O[C@@H]1[C@H](O)[C@H](OP(=O)(O)O)[C@@H](O)[C@H](OP(=O)(O)O)[C@H]1O)OC(=O)CCCCCCC/C=C\CCCCCCCC [2% 18:1 PtdIns(3,5)P2]
4.89

Below: the item to evaluate.
Query for GFP-myo1e-tail (His6-GFP-myo1e-tail) (Homo sapiens, UniProt Q12965): what pKd does the record show for `CCCCCCCC/C=C\CCCCCCCC(=O)OC[C@H](COP(=O)(O)OC[C@H](N)C(=O)O)OC(=O)CCCCCCC/C=C\CCCCCCCC` ?
6.29
